Documented Enzyme Activity Endpoint Assay: Fc across a set of proteins
Target: pooled human IgG (human IgG1,2,3 and 4)
Entry rule: numbers only, all in ng/µL.

INSERT INTO measurements (protein, measured_number) VALUES
  ('PRT-181 (protein) MANQEIRYSEVTPYHVTSVWTKGVTPPANFTQGEDVFHAPYVANQGWYDITKTFNGKDDLLCGAATAGNMLHWWFDQNKDQIKRYLEEHPEKQKINFNGEQMFDVKEAIDTKNHQLDSKLFEYFKEKAFPYLSTKHLGVFPDHVIDMFINGYRLSLTNHGPTPVKEGSKDPRGGIFDAVFTRGDQSKLLTSRHDLKNKNLKEISDLIKKELTEGKALGLSHTYANVRINHVINLWGADFDSNGNLKAIYVTDSDSNASIGMKKYFVGVNSAGKVAISAKEIKEDNIGAQVLGLFTLSTGQDSWNQTN', 217),
  ('PRT-93 (protein) MANQEIRYSEVTPYHVTSVWTKGVTPPAKFTQGEDVFHAPYVANQGWYDITKTFNGKDDLLCGAATAGNMLHWWFDQNKEKIEAYLKKHPDKQKIMFGDQELLDVRKVINTKDDQTNSELFNYFRDKAFPGLSARRIGVMPDLVLDMFINGYYLNVYKTQTTDVNRTYQEKDRRGGIFDAVFTRGDQSKLLTSRHDFKEKNLKEISDLIKKELTEGKALGLSHTYANVRINHVINLWGADFDSNGNLKAIYVTDSDSNASIGMKKYFVGVNSAGKVAISAKEIKEDNIGAQVLGLFTLSTGQDSWNQTN', 91);

Can you share its Enzyme Activity Endpoint Assay: Fc? I mean this protein: PRT-168 (protein) MANQEIRYSEVTPYHVTSVWTKGVTPPEDFTQGEDVFHAPYKANQGWYDITKTFNGKDDLLCGAATAGNMLHWWFDQNKDQIKRYLEEHPEKQKINFNGEQMFDVKEAIDTKNSQLDSKLFEYFKEKAFPYLSTKHLGVFPDHVIDMFINGYRLSLTNHGPTPVKEGSKDPRGGIFDAVFTRGDQSKLLTSRHDFKEKNLKEISDLIKKELTEGKALGLSHTYANVRINHVINLWGADFDSNGNLKAIYVTDSDSNASIGMKKYFVGVNSAGKVAISAKEIKEDNIGAQVLGLFTLSTGQDSWNQTN
159

Can you share its Enzyme Activity Endpoint Assay: Fc? I mean this protein: PRT-480 (protein) MITSVWTKGVTPPTDFIYGEDVLHAPYKAGQGWYDITKAFDGGDDLLCGAATAGNMLHWWFDQNKEQIENYLKKHPEKQKINFNGEQMFDVKEAIDTKDSQTNSELFNYFKEKAFPYLSTKHLGVFPDHVIDMFINGYRLSLTNHGPTPVKRGSKDPRGGIFDAVFTRGDQSKLLTNRHDLKNKTLNEISQLIKQELTEGKALGISHTYANVRINHVINLWGADFDAEGNLEAIYVTDSDSNASIGMKKYFVGVNSNGKVAISAKEIEEDNIGAQVLGLFTLSTGQDIWNQTNLEHHHHHH
325
